tested on: RXF 393 renal; experiment: NCI-60 one-dose screen, 48 h (100 = growth as untreated, 0 = no growth, -100 = all killed); details: 10 µM unless noted
Compounds without any hit were thinned out: in the full panel of roughly 83,000, 20% have a hit.
Returns one of class 1 or class 0; class 1 when growth is >= 20%.

Data request: Threshold query (growth >= 20%) on CC(C)[C@@H]1CC[C@@H]2[C@@H]1[C@H](OC(=O)/C=C/c1ccccc1)[C@]1(C(C)C)C[C@@H](OC(=O)CO)[C@@]2(C)O1
Data returned: class 1

Data request: Threshold query (growth >= 20%) on COC(=O)[C@@H](OC)[C@@H]1Cc2cc3cc(OC4CC(OC5CC(O)C(O)C(C)O5)C(O)C(C)O4)c(C)c(O)c3c(O)c2C(=O)[C@H]1OC1CC(OC2CC(OC3CC(C)(O)C(O)C(C)O3)C(O)C(C)O2)C(O)C(C)O1 (stereo not given in full)
Data returned: class 0

Data request: Threshold query (growth >= 20%) on COc1ccc(S(=O)(=O)N(C(C)=O)c2ccccc2/C=C/c2cc[n+]([O-])cc2)cc1
Data returned: class 0

Data request: Threshold query (growth >= 20%) on Nc1ncnc2c1c(-c1cccc(OCc3ccccc3)c1)cn2C1CC(CN2CCC2)C1 (stereo not given)
Data returned: class 0

Data request: Threshold query (growth >= 20%) on COc1cc2cc(NCc3ccc(Cl)cc3)nc(C)c2cc1OC
Data returned: class 1
